Test system: A498
Test: NCI tumour cell line growth inhibition, 48 h
Active and inactive are the calls of the source. No stated cut-off is given here; in the data, active = GI50 up to about 1.1 µM and inactive = higher.
# maps each entry to its GI50

Worked set:
molecule	target-system	GI50
O=C(O[C@@H](/C=C/c1ccccc1)P1(=O)N(Cc2ccccc2)[C@H]2CCCC[C@@H]2N1Cc1ccccc1)c1ccccc1	A498	2.12 µM (inactive)
O=C1c2ccccc2C(=O)c2c(/C=C\N3CCCCC3)ccnc21	A498	8.99 µM (inactive)

Please find the next molecule below.
Look at this molecule and give its reported GI50. CC(=O)[C@@H]1[C@@H](OC(=O)CCC(C)COC2OC(CO)C(O)C(O)C2O)C[C@H]2[C@@H]3CC=C4C[C@@H](OC5OC(CO)C(OC6OC(C)C(O)C(O)C6O)C(O)C5OC5OC(C)C(O)C(O)C5O)CC[C@]4(C)[C@H]3CC[C@]12C (stereo partly drawn)
> 100 µM (inactive)

* * *

Tested on: SF-268
Experiment: NCI tumour cell line growth inhibition, 48 h
Active and inactive are the calls of the source. No stated cut-off is given here; in the data, active = GI50 up to about 1.1 µM and inactive = higher.
Pick one: yes (1) for active, no (0) for inactive

compound	class-assignment
CCOC(=O)C1S/C(=N\C(=N)N[N+](=O)[O-])N=C1C (centres undefined)	no (0)
CC[C@@]1(O)C(=O)OCc2c1cc1n(c2=O)Cc2c-1nc1ccccc1c2/C=N\c1ccc(N[C@@H]2c3cc4c(cc3[C@@H](c3cc(OC)c(O)c(OC)c3)[C@H]3C(=O)OC[C@@H]32)OCO4)cc1	yes (1)
CC(=O)NC1=C[C@@H]([C@H]2COC(C)(C)O2)OC1=O	no (0)
Cc1ccc2nc(-c3ccc(-n4c(C)nc(=O)c(-c5ccc(F)cc5)c4C)cc3)sc2c1	no (0)
O=c1[nH]c2c(C(F)(F)F)c(Cl)c(-c3ccccc3)nc2o1	no (0)

Name the outcome recorded for CCCC(=O)Nc1ncnc2c1ncn2C1OC2COP(=O)(O)OC2C1OC(=O)CCC (centres undefined) in the assay.
no (0)

Could you kindly confirm the outcome this assay logged for `O=C(CNc1ccc(Cl)cc1)Nn1c(-c2ccccc2)nc2ccccc2c1=O` ?
no (0)

Please let me know the test result on file for [N-]=[N+]=NC1C(O)C(CO)OC1n1cnc2c(N)ncnc21 (centres undefined) .
no (0)

Field: outcome | Entry: `CC(=O)Oc1ccc2c(c1)O/C(=C\c1ccc(O)cc1)C2=O`
no (0)

* * *

Test system: SK-MEL-5
Assay: NCI tumour cell line growth inhibition, 48 h
The source made the active and inactive calls. No stated cut-off is given here; in the data, active = GI50 up to about 1.1 µM and inactive = higher.
Your response should consist of one outcome taken from active, inactive

Example cases with answers are listed next.
compound	class-assignment
CCCCC/C=C\C=C\CCCCCCCCC(=O)OC	inactive
CC(=O)[C@@H]1[C@@H](OC(=O)CCC(C)COC2OC(CO)C(O)C(O)C2O)C[C@H]2[C@@H]3CC=C4C[C@@H](OC5OC(CO)C(OC6OC(C)C(O)C(O)C6O)C(O)C5OC5OC(C)C(O)C(O)C5O)CC[C@]4(C)[C@H]3CC[C@]12C (stereo partly drawn)	inactive
O=Cc1c[nH]c2c(=O)[nH]cnc12	inactive
COc1cccc(N2CCc3c(C)c(C#N)c4nc5ccccc5n4c32)c1	inactive
COc1ccc(CN2C(=O)CCC/C=C\[C@H]2CI)cc1	inactive
c1ccc(CSc2nc(N3CCCCC3)c3cn[nH]c3n2)cc1	inactive

Can you look up the reported call for `Cc1cc(-c2ccc[nH]2)on1` for me?
inactive

Per the assay record, what outcome was assigned to `COc1ccc(/C=N/N=C(N)N)c(C(=O)O)c1OC` ?
inactive

Assay result, entry `COc1ccc(/N=C2\C(=O)C3=C(OC(C)(C)CC3)c3ccccc32)cc1` — outcome?
active

For `O=S(=O)(N/N=C\c1c2ccccc2[n+]([O-])c2ccccc12)c1ccc(Cl)cc1` , what call appears in the results of this test?
inactive

# outcome recorded in this test, key = `OCCOCCO[P+]1(OCCOCCO)n2c3ccc2C(c2ccccc2)=C2C=CC(=N2)C(c2ccccc2)=c2ccc(n21)=C(c1ccccc1)C1=NC(=C3c2ccccc2)C=C1`
active

Answer briefly: the call reported for CC1(C)C(O)C[C@@H](O)[C@@]2(C)C1CC[C@]1(C)C2C[C@@H](O)[C@@H]2C([C@@]3(C)CC[C@@H](C(C)(C)O)O3)CCC21C (stereo partly drawn) in this assay.
inactive

Please indicate how the test categorized `COc1cn2c(cc1=O)COc1ccc(-c3ccccc3)cc1-2` .
inactive

* * *

Tested on: OVCAR-5
Assay: NCI tumour cell line growth inhibition, 48 h
The source made the active and inactive calls. Rule as the data show it: active = GI50 up to about 1.1 µM and inactive = higher.
Entries annotated with measured GI50

Solved cases (3 shown):
compound	GI50
COC(=O)c1c(O)c2c(c3c1OC(C)(C)CC3)OC(C)(C)CC2	18.4 µM (inactive)
COc1ccc(-c2oc3c(CC(=O)O)cccc3c(=O)c2OC)cc1	> 100 µM (inactive)
NC(=O)C/C=C/CC(N)=O	> 100 µM (inactive)

Given the compound `O=[N+]([O-])c1cc(Cl)ccc1S(=O)(=O)c1cc(Cl)cc2c1NCCC2` , what is its reported GI50?
> 100 µM (inactive)

Dear colleague, I am looking for the recorded GI50 of the following compound: `O=S(=O)(Nc1nccs1)c1ccc(Nc2nc(-c3cccs3)nc3ccc(I)cc23)cc1`
40.2 µM (inactive)

Query (compound): `O=C(N/C=C/C=C/Sc1ccccc1)OCc1ccccc1` ; field requested: GI50
14.3 µM (inactive)

Requested field: GI50. Item: `O=C1C(Cl)=C(Cl)C(=O)N1c1ccc(Cl)c(Cl)c1Cl`
> 100 µM (inactive)

Value lookup for GI50; key = Cc1ccc(S(=O)(=O)C(C#N)c2nc3ccccc3nc2N2CCOCC2)cc1 (stereo not given)
> 100 µM (inactive)

Look up GI50: `N/C(=C\c1ccc(/C=C(\NC(=O)c2ccccc2)c2nc3c([nH]2)C(=O)c2ccccc2C3=O)cc1)c1nc2c([nH]1)C(=O)c1ccccc1C2=O`
18.9 µM (inactive)

Look at this compound and give its reported GI50. `Cc1ccc2cccc(-c3cccc4ccccc34)c2n1`
18.3 µM (inactive)

* * *

This section presents compounds with their documented GI50 values.
Tested on: NCI/ADR-RES
Test: NCI tumour cell line growth inhibition, 48 h
The source made the active and inactive calls. Cut-off read from the data, not from the text of the source: active = GI50 up to about 1.1 µM and inactive = higher.

compound	GI50
COc1cccc(C(=O)Nc2c3ccccc3nc3ccccc23)c1OC	> 100 µM (inactive)
O=c1[nH]/c(=C/c2ccc(OCc3ccccc3)cn2)c(=O)[nH]/c1=C/c1ccc(Cl)cc1	5.37 µM (inactive)
CCCCCCCCCCCCCCCCCCNc1ccn(C2OC(COP(=O)(O)O)C(O)C2O)c(=O)n1 (stereo not given)	> 100 µM (inactive)
CCn1c(=O)c2nc(SC)sc2n(-c2ccc(C)cc2)c1=O	> 100 µM (inactive)
CCOC(=O)C(=Cc1[nH]c2ccccc2c1-c1c[nH]c2ccccc12)C(=O)OCC	7.16 µM (inactive)
Cc1c(-c2ccccc2)c(C#N)c2nnn(C3CCCCC3)c(=O)n12	> 100 µM (inactive)

Give its GI50 value. Item: `COC(=O)c1c(O)ccc2c1c1c(n2Cc2ccc(Cl)cc2Cl)C(=O)c2ccccc2C1=O`
10.7 µM (inactive)

Recorded GI50 of `COc1ccc(-c2oc3c(CC(=O)O)cccc3c(=O)c2OC)cc1` , please.
> 100 µM (inactive)

Item `CCCCc1ccc(N2C(=O)c3cccnc3S2(=O)=O)cc1` has what recorded GI50?
> 100 µM (inactive)

Field request: GI50 | item: C#CCNC(Cc1ccccc1)C(=O)O (stereo not given)
> 100 µM (inactive)

* * *

A collection of compounds and their measured GI50
Test system: RPMI-8226
Experiment: NCI tumour cell line growth inhibition, 48 h
Active and inactive are the calls of the source. No stated cut-off is given here; in the data, active = GI50 up to about 1.1 µM and inactive = higher.

Field: example entries. Status: answers known.
compound	GI50
C=CCNC(=O)NC1=CSC2=NC(=O)C3(NN12)c1ccccc1-c1ccccc13	> 10 µM (inactive)
CC(C)(C)OC(=O)C(C#N)C(=O)c1ccc(C(=O)O)[nH]1 (centres undefined)	22.8 µM (inactive)
C#CC(O)/C=C/C(O)CCCC(O)CC#CC(O)C#CC(O)CCCC(O)/C=C/CCCCCC(=O)CCCCCCCCCCCCCC(O)C(O)C#CC(=O)O (centres undefined)	26.5 µM (inactive)
CC(=O)OC[C@@H](COC(=O)/C=C/c1ccc(O)cc1)OC1OC(CO)C(O)C(O)C1O (some centres undefined)	> 100 µM (inactive)
COc1ccc(/C(=N/N=c2[nH]c3ccccc3[nH]2)C(=O)O)cc1	> 100 µM (inactive)
N/N=C(\c1nc2ccc(Cl)cc2nc1O)C(O)c1ccc(Cl)c(Cl)c1 (centres undefined)	> 100 µM (inactive)
N#CC(c1cc2c(cc1Br)OCO2)N1CCOCC1 (centres undefined)	20.3 µM (inactive)
COCCOCC(=O)N(CCn1ccc(NC(c2ccccc2)(c2ccccc2)c2ccccc2)nc1=O)CCn1cnc2nc(N)[nH]c(=O)c21	> 100 µM (inactive)

Here is the next item to consider.
Which value of GI50 has been reported for `O=C([O-])C1([n+]2c(-c3ccccc3)cc(-c3ccccc3)cc2-c2ccccc2)CC1` in the records?
32.2 µM (inactive)
